We begin with a simple list: items and their reported inhibition.
Target: L-lactate dehydrogenase (Plasmodium falciparum (isolate CDC / Honduras)) (UniProt Q27743)
Sequence (Q27743 whole entry, looked up): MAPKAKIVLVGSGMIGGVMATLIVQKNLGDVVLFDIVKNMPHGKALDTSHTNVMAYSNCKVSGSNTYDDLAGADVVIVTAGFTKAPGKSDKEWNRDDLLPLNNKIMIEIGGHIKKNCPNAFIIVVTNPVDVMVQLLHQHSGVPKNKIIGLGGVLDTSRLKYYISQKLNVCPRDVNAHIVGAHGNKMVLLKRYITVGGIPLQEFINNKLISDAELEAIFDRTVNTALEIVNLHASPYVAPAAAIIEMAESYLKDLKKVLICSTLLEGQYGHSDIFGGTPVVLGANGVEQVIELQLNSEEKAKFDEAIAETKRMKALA
Test: PfLDH activity inhibition – cell lysate, 3D7 strain, counter-screen for P. falciparum growth inhibition project (AID 2304);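 also: 0% = vehicle and 100% = reference inhibitor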
Details: P. falciparum 3D7 crude extract, LDH APAD/NBT absorbance; at 2 µM; active compounds read high
Give just the numeric value; % need not be written.

compound=COc1cc(CNC[C@@H](O)[C@H](Cc2ccccc2)NC(=O)c2cc(OC(C)C)cc(N3CCCS3(=O)=O)c2)cc(OC)c1 system_tested="L-lactate dehydrogenase (Plasmodium falciparum (isolate CDC / Honduras)) (UniProt Q27743)" parameter=inhibition endpoint_result=0
compound=COc1cccc2cc(C(=O)N[C@@H](CC(C)C)C(=O)N[C@H](/C=N/NC(=O)OC(C)(C)C)CC(=O)OC(C)(C)C)oc12 system_tested="L-lactate dehydrogenase (Plasmodium falciparum (isolate CDC / Honduras)) (UniProt Q27743)" parameter=inhibition endpoint_result=0
compound="CCN1CCN(C(=O)NC(C(=O)N(C)Cc2ccc(-c3ccc(C(F)(F)F)cc3)cc2)c2cccs2)C(=O)C1=O (stereo not drawn)" system_tested="L-lactate dehydrogenase (Plasmodium falciparum (isolate CDC / Honduras)) (UniProt Q27743)" parameter=inhibition endpoint_result=-1
compound=CC(C)Cn1ncc2c3c(N)nc(N)nc3ccc21 system_tested="L-lactate dehydrogenase (Plasmodium falciparum (isolate CDC / Honduras)) (UniProt Q27743)" parameter=inhibition endpoint_result=1
compound=COC(=O)c1ccc2nc(-c3cc(OC)c(O)c(C(=O)NC4CCN(Cc5ccccc5)CC4)c3)[nH]c2c1 system_tested="L-lactate dehydrogenase (Plasmodium falciparum (isolate CDC / Honduras)) (UniProt Q27743)" parameter=inhibition endpoint_result=0
compound=COc1ccc2nc(C)cc(NN=Cc3ccccc3)c2c1 system_tested="L-lactate dehydrogenase (Plasmodium falciparum (isolate CDC / Honduras)) (UniProt Q27743)" parameter=inhibition endpoint_result=0
compound="Cc1cccc2[nH]c(-c3cccc(-c4ccc(NC(=O)C5CC(=O)Nc6ccccc65)cc4)c3)nc12 (stereo not drawn)" system_tested="L-lactate dehydrogenase (Plasmodium falciparum (isolate CDC / Honduras)) (UniProt Q27743)" parameter=inhibition endpoint_result=3

Now examine the next entry.
Enquiry: Query (compound): COc1ccc(-c2nc3c(N)nc(N)nc3nc2-c2ccccc2Cl)cc1 (tested in a mixture with another compound) ; field requested: inhibition
Return: -2

---

Target: Calcium-dependent protein kinase 4 (Plasmodium falciparum (isolate 3D7)) (UniProt Q8IBS5)
Sequence (Q8IBS5 whole entry, looked up): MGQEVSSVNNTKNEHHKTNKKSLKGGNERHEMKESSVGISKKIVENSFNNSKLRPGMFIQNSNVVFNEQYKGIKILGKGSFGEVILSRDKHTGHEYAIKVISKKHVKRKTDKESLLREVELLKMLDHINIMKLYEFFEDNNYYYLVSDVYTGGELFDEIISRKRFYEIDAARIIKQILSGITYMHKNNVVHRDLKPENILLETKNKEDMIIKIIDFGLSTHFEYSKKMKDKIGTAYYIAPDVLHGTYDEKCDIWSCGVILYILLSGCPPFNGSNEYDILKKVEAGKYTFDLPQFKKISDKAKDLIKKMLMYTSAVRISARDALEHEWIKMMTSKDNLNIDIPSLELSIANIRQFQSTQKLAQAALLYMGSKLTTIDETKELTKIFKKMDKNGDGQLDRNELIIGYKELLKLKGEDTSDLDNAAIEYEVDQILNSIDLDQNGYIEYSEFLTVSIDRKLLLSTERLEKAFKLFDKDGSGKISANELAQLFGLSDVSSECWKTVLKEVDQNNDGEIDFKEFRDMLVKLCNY
Assay: PfCDPK4 kinase inhibitors, biochemical, TCAMS library (AID 1159588)
Settings: recombinant PfCDPK4, Kinase-Glo ATP depletion luminescence
Entries with a potency or affinity are not part of this list. Active and inactive are the calls of the source. Cut-off not given; nearly all actives show IC50 up to about 0.91 µM.
PARAMETER: outcome

Illustrative cases are given below, each with its answer.
compound=CCCc1cc(NCC)nc(Nc2ccc(C)cc2)n1 endpoint_result=inactive
compound=CC(C)(C)c1cc2cc(Nc3ccnc4cc(-c5nccs5)ccc34)ccc2[nH]1 endpoint_result=inactive
compound=CS(=O)(=O)N(c1ccccc1)c1cc(C(=O)N[C@@H](Cc2ccccc2)[C@H](O)CNC2CC2)cc(N2CCCC2=O)c1 endpoint_result=inactive
compound="CCOc1ccc(C(=O)N2CCOC(CCN3CCC4(CCc5ccccc54)CC3)(c3ccc(Cl)c(Cl)c3)C2)cc1 (centres undefined)" endpoint_result=inactive
compound=COc1ccc(NC(=O)[C@H](Cc2ccccc2)Nc2cc(C)nc(NCC3CCCCC3)n2)cc1 endpoint_result=inactive

Enquiry: Item CC(Oc1c(C2CCN(CCCCNC(=O)c3ccc(-c4ccc(Cl)cc4)cc3)CC2)ccc2c1CCCC2)C(N)=O (centres undefined) with Calcium-dependent protein kinase 4 (Plasmodium falciparum (isolate 3D7)) (UniProt Q8IBS5) - outcome?
Return: inactive

Enquiry: Moving on to the next compound: COc1ccc2nccc([C@@H](O)CN3CCC(NCc4ccc5c(c4)oc(=S)n5C)CC3)c2c1
Return: inactive

Enquiry: Moving on to the next compound: COc1cccc(OC)c1C(=O)N1CCC2(CC1)C(=O)N(CC(=O)NC1CCCCC1)CN2c1ccccc1
Return: inactive

---

We begin with a simple list: items and their reported growth inhibition.
Test: antimalarial activity against Dd2 strain (AID 2302);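 also: 0% = DMSO untreated growth and 100% = chloroquine plus artemisinin killed control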
Conditions: P. falciparum Dd2 in RBCs, LDH growth readout, 72 h; at 2 µM; active compounds read high
Activity calls are given as the source filed them.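 Rule for the calls: active = growth inhibition above 50% at the single 2 µM test dose, taken to imply half-maximal potency below 2 µM; inactive = the rest.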

Illustrative cases are given below, each with its answer.
molecule=CCN(CC)Cc1ccc2c(=O)cc(CCc3cccc(F)c3F)n(CC(=O)N(Cc3ccc(-c4ccc(C(F)(F)F)cc4)cc3)C(C)C)c2c1 endpoint_result="63% (active)"
molecule=Cc1cc(F)ccc1-c1nc(NCCCN2CCCC2=O)nc2c1ccc(=O)n2-c1c(F)cccc1F endpoint_result="80% (active)"
molecule=Cc1cccc(CN2CCN(c3ncc(C(=O)NC4CC4)cc3Cl)CC2)c1 endpoint_result="73% (active)"

Enquiry: Query (molecule): COc1cc(F)c2nccc([C@@H](O)CN3CCC(NCc4nc5c(F)cccc5[nH]4)CC3)c2c1 ; field requested: growth inhibition
Return: 5% (inactive)

Enquiry: Moving on to the next molecule: CN1CCC(C(=O)Nc2cccc(-c3ccc(-c4nc5ccccc5[nH]4)cc3)c2)CC1
Return: 15% (inactive)

Enquiry: Moving on to the next molecule: CC(=O)c1ccc(N2CCN(CCC3(c4ccc(Cl)c(Cl)c4)COCN(C(=O)c4ccccc4)C3)CC2)cc1 (stereo not drawn)
Return: 95% (active)

Enquiry: Moving on to the next molecule: CCCCc1ccc(-c2nc(NC(=O)Nc3nc(-c4ccccc4)[nH]c3C(=O)OCC)c(C(=O)OCC)[nH]2)cc1
Return: 26% (inactive)

Enquiry: Moving on to the next molecule: Cc1cc(N[C@@H](Cc2ccccc2)C(=O)NCc2cccc(F)c2)nc(NCCc2ccc(F)cc2)n1
Return: 69% (active)

Enquiry: Moving on to the next molecule: O=C(C1COc2ccccc2O1)N(CCCn1ccnc1)Cc1csc(-c2ccc(CNCc3ccccc3)cc2)n1 (stereo not drawn)
Return: 18% (inactive)

Enquiry: Moving on to the next molecule: CC(C)(C)c1ccc(CN2CCC(NC(=O)c3cc(-c4cccc(C(F)(F)F)c4)cs3)C2)cc1 (stereo not drawn)
Return: 85% (active)

Enquiry: Moving on to the next molecule: O=C(NCC1CCN(Cc2cccc(F)c2)C1)c1cc(-c2cccc(C(F)(F)F)c2)cs1 (stereo not drawn)
Return: 10% (inactive)

Enquiry: Moving on to the next molecule: COC(=O)c1cccc(C#CCCOCCCCCCNC[C@H](O)c2cc(Cl)c(N)c(Cl)c2)c1
Return: 88% (active)

---

Experiment: human hepatoma cell viability loss – ATP luminescence, cytotoxicity control for P. falciparum antimalarial project, primary screen (AID 2303);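 also: 0% = DMSO wells and 100% = digitonin-killed cells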
Conditions: HepG2 viability, 24-48 h, at 10 µM
Calls of active or inactive are those of the source.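 Rule for the calls: active = inhibition above 50%; inactive = the rest.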
Please state which outcome applies, choosing from active, inactive

compound=c1cncc(CNc2ncc(-c3ccsc3)c(-c3nccs3)n2)c1 label_class=inactive
compound=O=C(Nc1cccc(CN2CCN(Cc3cccc(O)c3)CC2)c1)c1cc2ccccc2s1 label_class=inactive
compound=COc1ccc(CN(C)CCCc2ccc(NC(=O)c3cccc4c(=O)c5cccc(F)c5[nH]c34)cc2)cc1OC label_class=active
compound=OCCn1c(CNCCCNc2nc3ccccc3[nH]2)cc2c(Cl)cc(Cl)cc21 label_class=inactive

Enquiry: Hi team, can someone confirm the assay call for CN1CCN(C(=O)CN2CCC3(CCC2=O)NC(=O)c2ccccc2O3)CC1 (stereo not given) ?
Return: inactive

---

Target: L-lactate dehydrogenase (Plasmodium falciparum (isolate CDC / Honduras)) (UniProt Q27743)
Assay: PfLDH activity inhibition – cell lysate, 3D7 strain, counter-screen for P. falciparum growth inhibition project (AID 2304);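 also: 0% = vehicle and 100% = reference inhibitor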
Conditions: P. falciparum 3D7 crude extract, LDH APAD/NBT absorbance; at 2 µM; active compounds read high
Calls of active or inactive are those of the source. No rule for the calls is given here.
PARAMETER: inhibition

Illustrative cases are given below, each with its answer.
molecule=COc1ccc(CCNCCCCNCCc2ccc(OC)c3ccccc23)c2ccccc12 endpoint_result="-1% (inactive)"
molecule="O=C(Cc1cccc(O)c1)NCC(Cc1ccc(O)cc1)c1ccccc1 (stereo not given)" endpoint_result="3% (inactive)"
molecule=O=C(Cn1c(CCc2cccc(F)c2F)nc(=O)c2ccccc21)N(CCCN1CCCC1)Cc1ccc(-c2ccc(C(F)(F)F)cc2)cc1 endpoint_result="4% (inactive)"
molecule="CCCCOc1ccc(C(O)C(CN2CCCCC2)c2ccccc2)cc1 (stereo not given)" endpoint_result="3% (inactive)"
molecule="CCc1c(CCNCCCC(C)CCNCCc2ccc(OC)c(OC)c2CC)ccc(OC)c1OC (stereo not given)" endpoint_result="1% (inactive)"

Enquiry: Query (molecule): COc1ccc(-c2cc(NCc3ccc(-n4ccnc4)cc3)nc(Nc3ccccc3)n2)cc1 ; field requested: inhibition
Return: 0% (inactive)

Enquiry: Moving on to the next molecule: COc1ccc2nccc([C@@H](O)CN3CCC(NCc4nc5ccccc5[nH]4)CC3)c2c1
Return: 4% (inactive)

Enquiry: Moving on to the next molecule: CC(C)(C)c1ccc2nc(-c3ccc(/C=C/C(=O)NCc4cccc(C(F)(F)F)c4)cc3)[nH]c2c1
Return: -16% (inactive)

Enquiry: Moving on to the next molecule: C=C(NC(=O)C1CCCCC1)C(=O)OC
Return: -4% (inactive)

Enquiry: Moving on to the next molecule: Cc1cc(OCC2CCN(c3ncc(C(=O)NC4CC4)cc3Cl)CC2)ccc1F
Return: 5% (inactive)
